Every entry's value here was drawn from patent US20250388664A1.

Target: T1, truncated cTfR1 of SEQ ID NO:123 (cynomolgus monkey, UniProt Q5RDH6 122-760 (Pongo abelii entry))
T1 construct: also called cynomolgus TfR1
T1 chain: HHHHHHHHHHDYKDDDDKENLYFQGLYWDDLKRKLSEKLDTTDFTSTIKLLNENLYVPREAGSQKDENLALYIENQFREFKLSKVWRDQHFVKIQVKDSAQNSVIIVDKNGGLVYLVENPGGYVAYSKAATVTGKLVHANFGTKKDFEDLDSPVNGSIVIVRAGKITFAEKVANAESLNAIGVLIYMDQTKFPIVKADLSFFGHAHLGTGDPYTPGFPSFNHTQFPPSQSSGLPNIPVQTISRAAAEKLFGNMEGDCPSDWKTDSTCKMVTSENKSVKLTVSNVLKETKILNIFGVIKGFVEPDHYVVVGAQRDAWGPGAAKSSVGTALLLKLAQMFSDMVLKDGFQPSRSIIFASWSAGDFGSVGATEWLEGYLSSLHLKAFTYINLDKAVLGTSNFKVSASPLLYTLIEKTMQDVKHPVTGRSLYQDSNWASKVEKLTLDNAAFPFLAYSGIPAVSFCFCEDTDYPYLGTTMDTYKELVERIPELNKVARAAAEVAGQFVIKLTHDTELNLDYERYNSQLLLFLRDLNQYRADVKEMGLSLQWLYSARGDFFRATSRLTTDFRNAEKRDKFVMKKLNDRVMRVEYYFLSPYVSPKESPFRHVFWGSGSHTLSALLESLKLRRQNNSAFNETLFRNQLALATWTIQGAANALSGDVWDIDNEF
Experiment: SPR, TfR1 amine-coupled, Fab injected, 1:1 fit
Can you tell me Kd for the items I'm about to list?
Note: unit nM is implicit; provide only the numeric part.

-- ask Please indicate Kd recorded for h26D3 variant HC11 Fab (Fab, V domains shown, Single-mutant His-tagged Fab; also called Y107A) VH: EVQLVQSGAEVKKPGSSVKVSCKASGYIFTDYNMDWVRQAPGQGLEWIGDINPDYDTTSYNEKFKGRATLTVDKSTSTAYMELSSLRSEDTAVYYCARGGYSGSSYAHPMDYWGQGTLVTVSS VL: DIQMTQSPSSVSASVGDRVTITCKSSQSLLYSTNQKNYLAWYQQKPGKAPKLLIYWASTRESGVPSRFSGSGSGTDFTLTISSLQPEDFATYYCQQYFIYPRTFGQGTKVEIK
-- reply 2.7

-- ask Name the recorded Kd of the binder listed here: h26D3 variant HC2 Fab (Fab, V domains shown, Single-mutant His-tagged Fab; also called Y32A) VH: EVQLVQSGAEVKKPGSSVKVSCKASGYIFTDANMDWVRQAPGQGLEWIGDINPDYDTTSYNEKFKGRATLTVDKSTSTAYMELSSLRSEDTAVYYCARGGYSGSSYYHPMDYWGQGTLVTVSS VL: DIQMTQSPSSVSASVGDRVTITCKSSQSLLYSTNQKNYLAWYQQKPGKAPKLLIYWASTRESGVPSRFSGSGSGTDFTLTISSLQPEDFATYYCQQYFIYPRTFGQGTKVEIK
-- reply 12

-- ask Give the reported value of Kd for this record: h26D3 variant LC6 Fab (Fab, V domains shown, Single-mutant His-tagged Fab; also called Y100A) VH: EVQLVQSGAEVKKPGSSVKVSCKASGYIFTDYNMDWVRQAPGQGLEWIGDINPDYDTTSYNEKFKGRATLTVDKSTSTAYMELSSLRSEDTAVYYCARGGYSGSSYYHPMDYWGQGTLVTVSS VL: DIQMTQSPSSVSASVGDRVTITCKSSQSLLYSTNQKNYLAWYQQKPGKAPKLLIYWASTRESGVPSRFSGSGSGTDFTLTISSLQPEDFATYYCQQYFIAPRTFGQGTKVEIK
-- reply 9.4
